# system_name: Full length DGKζ (in-house protein M1-V929) (Homo sapiens, UniProt Q13574)
# Construct: His (N); TEV cleavage site (N)
# Sequence (Q13574 1-929 isoform Q13574-4): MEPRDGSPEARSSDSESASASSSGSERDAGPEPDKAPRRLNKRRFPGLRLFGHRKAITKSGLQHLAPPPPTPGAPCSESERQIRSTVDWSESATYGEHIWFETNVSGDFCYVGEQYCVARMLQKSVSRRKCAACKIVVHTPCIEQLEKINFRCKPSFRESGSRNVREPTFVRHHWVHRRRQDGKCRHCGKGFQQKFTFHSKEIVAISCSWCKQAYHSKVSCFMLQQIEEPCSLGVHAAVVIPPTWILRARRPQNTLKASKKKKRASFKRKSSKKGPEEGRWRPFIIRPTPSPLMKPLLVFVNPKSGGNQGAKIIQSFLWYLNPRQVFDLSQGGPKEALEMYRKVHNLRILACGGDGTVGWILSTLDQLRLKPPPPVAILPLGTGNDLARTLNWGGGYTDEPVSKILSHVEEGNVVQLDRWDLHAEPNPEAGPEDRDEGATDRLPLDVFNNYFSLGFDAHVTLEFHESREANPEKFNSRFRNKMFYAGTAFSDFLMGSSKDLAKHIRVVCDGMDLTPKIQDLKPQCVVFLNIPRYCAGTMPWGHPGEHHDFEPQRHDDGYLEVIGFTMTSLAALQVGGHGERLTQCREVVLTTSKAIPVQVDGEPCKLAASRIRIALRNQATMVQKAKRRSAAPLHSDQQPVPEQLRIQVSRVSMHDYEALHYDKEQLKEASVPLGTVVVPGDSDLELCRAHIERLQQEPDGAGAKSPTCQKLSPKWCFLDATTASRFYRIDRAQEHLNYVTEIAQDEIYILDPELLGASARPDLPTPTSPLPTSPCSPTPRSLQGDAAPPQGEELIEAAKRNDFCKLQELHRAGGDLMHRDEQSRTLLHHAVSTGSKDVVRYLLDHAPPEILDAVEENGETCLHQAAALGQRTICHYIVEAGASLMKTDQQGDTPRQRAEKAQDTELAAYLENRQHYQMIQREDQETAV
# protocol_summary: Biochemical DGK IC50 assay (ADP-Glo, lipid micelle substrate), DGKζ
# protocol_conditions: 0.5 nM enzyme, 140 μM ATP, 80 μM DAG, 1 hour preincubation, 1 hour reaction, room temperature, read-out: IC50s for DGKζ
# Protocol: Enzymatic reactions of DGKζ, DGKα and DGKδ were performed using ADP-Glo assay with lipid micelle substrate. […] Full length DGKα (D21-10BG, SignalChem) and full length DGKδ (D23-10G, SignalChem) were purchased. Lipid micelle was prepared by dissolving DAG (Sigma, 317505-10MG) and PS (Sigma, P7769-100MG) with chloroform which was firtherly removed by rotary evaporation. […]
Provide the reported IC50 of each item.
One number for each entry, in nM.

Take each entry in turn and give its IC50.
1. CC[C@@H]1CN(c2c(C#N)c(=O)n(C)n3cc(CC#N)nc23)[C@@H](C)CN1C(C)c1ccc2nc(C)sc2n1 (single isomer, unassigned) [Compound A113b]
2. CC[C@H]1CN(C(C)c2ccc3nc(C)sc3c2)[C@H](CC)CN1c1cc(=O)n(C)n2cc(CC#N)nc12 (single isomer, unassigned) [Compound A56a]
3. CCC(c1ccc2nc(C)sc2n1)N1C[C@H](CC)N(c2cc(=O)n(C)n3cc(CC#N)nc23)C[C@H]1CC (single isomer, unassigned) [Compound A99b]
4. CC[C@H]1CN(C(C)c2ccc3cc(F)sc3n2)[C@H](CC)CN1c1cc(=O)n(C)n2cc(CC#N)nc12 (single isomer, unassigned) [Compound A105b]
5. CC[C@@H]1CN(c2c(C#N)c(=O)n(C)n3cc(CC#N)nc23)[C@@H](C)CN1C(C)c1ccc2nc(C)sc2n1 (single isomer, unassigned) [Compound A113a]
6. CC[C@H]1CN(C(C)c2ccc(OC)cc2)[C@H](CC)CN1c1cc(=O)n(C)n2cc(CC#N)nc12 (stereo partly drawn)

1: 2910; 2: 11; 3: 11; 4: 48; 5: 118; 6: 76
